- System: CCRF-CEM leukemia
- Experiment notes: NCI tumour cell line growth inhibition, 48 h
molecules and their reported TGI

Molecule	Target system	TGI
CC(=O)O[C@H]1C(=O)[C@@]2(C)C(C(OC(=O)c3ccccc3)[C@]3(O)CC(OC(=O)C(O)C(NC(=O)c4ccc(C(F)(F)F)cc4)c4ccccc4)C(C)=C1C3(C)C)[C@]1(OC(C)=O)CO[C@@H]1C[C@@H]2O (some centres undefined)	CCRF-CEM leukemia	15.5 µM
C=C(C)CCN[Si](c1ccccc1)(c1ccccc1)C(C)(C)C	CCRF-CEM leukemia	66.4 µM
Cc1cc(C)c(NC(=O)c2sc3nc4c(cc3c2N)C(=O)CCC4)c(C)c1	CCRF-CEM leukemia	> 100 µM
CCOP(=O)(OCC)C(c1ccc(F)cc1)N(C(=O)NC(F)(F)F)c1cccc(C(F)(F)F)c1 (centres undefined)	CCRF-CEM leukemia	> 100 µM

###

- Test system: OVCAR-5 ovarian
- Experiment notes: NCI tumour cell line growth inhibition, 48 h

Molecule	TGI
CCOC(=O)CNC(=O)N(CC)C12CC3CC(CC(C3)C1)C2	369 µM
C[N+]1(C)CCc2cc(O)c(O)cc2C1Cc1ccc(O)c(O)c1 (centres undefined)	> 100 µM
O=C1/C(=C(/c2ccccc2)N2CCOCC2)Cc2ccccc21	9.57 µM
CCOC(=O)c1ccc(N[C@@H]2c3cc4c(cc3C(c3cc(OC)c(O)c(OC)c3)[C@H]3C(=O)OCC32)OCO4)cc1O (some centres undefined)	> 100 µM
COc1cc2[nH]c3c(c2cc1OC)CCN[C@]31CC[C@]2(CC3c4c(cc(OC)c(O)c42)CCN3C)C[C@H]1OC (some centres undefined)	> 100 µM
COc1ccc(S(=O)(=O)c2ccccc2[N+](=O)[O-])cc1	> 100 µM
CCOP(=O)(OCC)C(c1ccc(F)cc1)N(C(=O)NC(F)(F)F)c1cccc(C(F)(F)F)c1 (centres undefined)	> 100 µM
CCOC(=O)/C(C)=C(/O)C(=O)OCC	> 100 µM
CCc1cc(Cc2cc(CC)c(NC(=O)C(=O)CC(=O)c3sc(-c4cccnc4)nc3C)c(CC)c2)cc(CC)c1NC(=O)C(=O)CC(=O)c1sc(-c2cccnc2)nc1C	> 100 µM
COC(=O)c1cc2c(cc1Cl)Sc1nnc(Nc3ccc(C)cc3)n1S2(=O)=O	39.8 µM
COc1cc(/C=C/c2ccc(OC)c(O)c2)cc(OC)c1	89.1 µM
CCc1nc2cc(F)c(/C=C/C(=O)NO)cc2c(=O)n1CCc1ccccc1	17.6 µM
CCC(C)NC1=NCC(C)S1 (centres undefined)	> 100 µM
CCc1nc(N)nc(N)c1-c1ccc(NC)c([N+](=O)[O-])c1	> 100 µM
COC(=O)c1cc2c(cc1CC(Cc1ccc3c(c1)CCCC3)C(=O)OC)CCCC2 (centres undefined)	> 100 µM
O=C1c2ccccc2C(=O)C1(O)c1c[nH]c2ccccc12	> 100 µM
C=C(C)[C@@H]1CC[C@]2(CO)CC[C@]3(C)[C@H](CC[C@@H]4[C@@]5(C)C=C(C#N)C(=O)C(C)(C)[C@@H]5CC[C@]43C)[C@@H]12	5.75 µM
CCOC(=O)C1SC(=Nc2ccc(C)c(C)c2)N=C1C (centres undefined)	> 100 µM
CC(=O)O[C@H]1C(=O)[C@@]2(C)[C@H]([C@H](OC(=O)c3ccoc3)[C@]3(O)C[C@H](OC(=O)[C@H](O)[C@@H](NC(=O)c4ccccc4)c4ccccc4)C(C)=C1C3(C)C)[C@]1(OC(C)=O)CO[C@@H]1C[C@@H]2O	> 12.5 µM

Every entry's value here was drawn from PubChem BioAssay (NCI).
